Kd by entry:
# measured-on: T1, recombinant human activated Factor VII (FVIIa) (human, UniProt P08709 61-212; P08709 213-466, ten glutamate residues of the Gla domain may be gamma-carboxylated)
# T1 construct: chains tethered by a disulfide bond; also called Factor VIIa; rFVIIa
# T1 sequence 1: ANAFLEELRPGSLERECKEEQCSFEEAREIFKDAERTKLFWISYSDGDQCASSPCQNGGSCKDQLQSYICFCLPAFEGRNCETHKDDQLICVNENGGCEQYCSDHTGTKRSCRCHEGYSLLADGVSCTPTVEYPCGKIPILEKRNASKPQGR
# T1 sequence 2: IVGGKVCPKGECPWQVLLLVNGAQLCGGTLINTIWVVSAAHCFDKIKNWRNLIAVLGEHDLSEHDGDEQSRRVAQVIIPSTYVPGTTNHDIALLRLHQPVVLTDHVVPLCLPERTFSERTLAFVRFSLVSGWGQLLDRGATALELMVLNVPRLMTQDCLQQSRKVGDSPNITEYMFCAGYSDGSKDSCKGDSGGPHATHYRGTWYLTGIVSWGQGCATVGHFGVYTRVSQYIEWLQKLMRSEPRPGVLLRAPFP
# test-protocol: BLI (Fortebio)
observed-property: Kd (nM)

VH SEQ ID NO 546 / VL SEQ ID NO 414 (antibody, IgG4, V domains shown, humanized 11F2; IgG4 S228P/kappa) VH: QVQLQESGPGLVEPSQTLSLTCTVSGYSITSDSAWSWIRQPPGKKLEWIGYIQYSGSTNYNPSLKSRVTISRDTSKNQFSLKLSSVTAADTAVYYCARSVNYYGNSFAVGYWGQGTSVTVSS VL: EIVLTQSPATLSLSPGERATLSCRASQGVSDYLAWYQQKPGQAPRLLIKYASQPATGIPARFSGSGSGTDFTLTISSLEPEDFAVYYCQNGHSFPLTFGQGTKLEIK
7.1
VH SEQ ID NO 586 / VL SEQ ID NO 502 (antibody, IgG4, V domains shown, humanized 11F2; IgG4 S228P/kappa) VH: QVQLQESGPGLVKPSDTLSLTCAVSGYSISSDSAWSWIRQPPGKGLEWIGYIQYSGSTNYNPSLKSRVTMSVDTSKNQFSLKLSSVTALDTAVYYCARSVNYYGNSFAVGYWGQGTLVTVSS VL: EIVLTQSPATLSLSPGERATLSCRASQGVSDYLHWYQQKPGQAPRLLIKYTSQPATGIPARFSGSGSGTDFTLTISSLEPEDFAVYYCQNGHSFPLTFGQGTKLEIK
15

Origin of values: patent US20220064329A1
